Measured Percent Effect accompanies every entry in the list below.
molecular target: Chromo domain-containing protein 1 (Saccharomyces cerevisiae (strain ATCC 204508 / S288c) (Baker's yeast)) (UniProt P32657); test: ScCHD-1 Enzyme Inhibition Assay; assay type: functional; design: scale not given: in the data most compounds retested in dose-response had high values; conditions: 30 µM
Sequence (P32657 whole entry, the tested form may be a part): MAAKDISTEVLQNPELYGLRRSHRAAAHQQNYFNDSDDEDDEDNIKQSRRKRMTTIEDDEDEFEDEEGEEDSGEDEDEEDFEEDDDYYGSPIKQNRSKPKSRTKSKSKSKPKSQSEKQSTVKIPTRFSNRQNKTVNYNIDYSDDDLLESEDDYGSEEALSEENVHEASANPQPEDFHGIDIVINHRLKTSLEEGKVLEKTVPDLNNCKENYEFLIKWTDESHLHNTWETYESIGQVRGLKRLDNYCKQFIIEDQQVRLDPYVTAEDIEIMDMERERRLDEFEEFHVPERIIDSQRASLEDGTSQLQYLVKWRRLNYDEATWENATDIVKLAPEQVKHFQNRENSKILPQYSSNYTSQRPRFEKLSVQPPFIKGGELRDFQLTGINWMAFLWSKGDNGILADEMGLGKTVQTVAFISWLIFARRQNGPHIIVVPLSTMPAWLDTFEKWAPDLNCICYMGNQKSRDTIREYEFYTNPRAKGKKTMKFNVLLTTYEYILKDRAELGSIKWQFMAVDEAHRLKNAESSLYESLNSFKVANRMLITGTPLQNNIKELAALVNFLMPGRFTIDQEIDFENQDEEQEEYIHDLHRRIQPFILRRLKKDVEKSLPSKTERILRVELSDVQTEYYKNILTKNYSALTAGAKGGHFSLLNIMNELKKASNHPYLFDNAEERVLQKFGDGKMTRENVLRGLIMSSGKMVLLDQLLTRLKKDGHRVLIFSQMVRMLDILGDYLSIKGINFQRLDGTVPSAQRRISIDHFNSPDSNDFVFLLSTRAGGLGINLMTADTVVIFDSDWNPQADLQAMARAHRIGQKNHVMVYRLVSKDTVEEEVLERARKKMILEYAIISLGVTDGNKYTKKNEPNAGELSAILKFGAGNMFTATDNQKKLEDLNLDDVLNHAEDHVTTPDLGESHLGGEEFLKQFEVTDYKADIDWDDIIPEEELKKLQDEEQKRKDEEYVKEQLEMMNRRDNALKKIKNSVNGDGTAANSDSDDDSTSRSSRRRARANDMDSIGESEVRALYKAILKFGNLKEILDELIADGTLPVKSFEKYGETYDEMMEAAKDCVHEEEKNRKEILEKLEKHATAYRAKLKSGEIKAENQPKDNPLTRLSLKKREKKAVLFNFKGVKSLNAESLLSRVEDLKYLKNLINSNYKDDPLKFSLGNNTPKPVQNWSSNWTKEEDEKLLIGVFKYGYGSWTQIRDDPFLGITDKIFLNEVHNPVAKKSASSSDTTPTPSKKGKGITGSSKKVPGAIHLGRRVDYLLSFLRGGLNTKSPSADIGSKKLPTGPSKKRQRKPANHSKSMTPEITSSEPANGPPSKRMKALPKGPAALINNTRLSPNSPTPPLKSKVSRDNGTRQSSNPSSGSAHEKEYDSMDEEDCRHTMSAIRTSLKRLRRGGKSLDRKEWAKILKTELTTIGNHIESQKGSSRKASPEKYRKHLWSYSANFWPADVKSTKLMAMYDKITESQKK
The reply should be a number in %, with the unit left off.

compound="CC1CCCCN1c1nc2c(c(=O)[nH]1)CCN(Cc1cccnc1)C2 (centres undefined)" reported_value=-18.2
compound=CC(=O)Nc1ncc(S(=O)(=O)Nc2ccc(F)cc2F)s1 reported_value=-9.04
compound="CN(Cc1ccco1)C(=O)CN1CCCC(Cn2cncn2)C1 (centres undefined)" reported_value=-6.09

Consider the compound shown here: COc1ccnc(N2CCN(C(=O)c3csc(C4CC4)n3)CC2)n1 What is its recorded Percent Effect?
-4.46

Follow-up entry: CCc1ccc(C(=O)NC2CCN(c3cnn(C)c3)C2=O)o1 (centres undefined)
-7.33

Could you do the same for Cc1ccc(CN2CCC[C@]3(C(=O)O)CN(c4ncccn4)C[C@@H]3C2)o1 , please?
-7.67

Would you mind doing Cn1cccc1CNC(=O)N(CCO)C1CCCc2ccccc21 (centres undefined) as well?
-9.55

Subsequent entry: Cc1ccccc1C1(CNC(=O)NCCc2nnc3n2CCC3)CC1
-0.461

For Nc1nc(CN2CCOC(Cn3cncn3)C2)nc2ccccc12 (centres undefined) then?
6.29

Try this compound too: Cc1nc(CN2C(=O)C[C@@H]3[C@@H]2CCN3C(=O)C2CCOCC2)cs1
-3.04

====

biological target: AMP-activated protein kinase, AMPK (Homo sapiens) (UniProt P54646+O43741+P54619+Q9UGJ0+Q9Y478+Q13131+Q9UGI9); test: AMP-dependent Kinase enzyme assay. An in vitro enzyme assay that detects ADP turnover that is directly proportional to AMPK activity. This uses naive AMPK that is activated during the assay with MK-8722; format: functional; set-up: scale not given: direction of the effect not stated beside the values; conditions: 30 µM
The following compounds are listed with their measured Percent Effect values.
Please reply with the bare figure in % and do not write the unit itself.

Example entries and their recorded answers appear below.
compound=Cn1c(Cn2cccn2)nnc1C1CCN(Cc2cccnc2N)CC1 reported_value=-1.91
compound=COc1cccc(CN(C)C(=O)CSc2ccc3c(c2)OCCO3)c1 reported_value=15.3
compound="CC(=O)N1CCCC(c2cnc(-c3c(C)nn(C)c3C)cn2)C1 (stereo unspecified)" reported_value=6.16
compound="O=C(c1cc(=O)[nH]c(=O)[nH]1)N1CCCCC1c1nc2cc(F)ccc2[nH]1 (stereo unspecified)" reported_value=2.15
compound=CCCNC(=O)CNc1cc(C#N)ccc1OCC reported_value=-6.15

// switching to the query compound
Percent Effect lookup needed for Cc1cnn(C2CCCN(C(=O)C3=NN(C)C(=O)CC3)C2)c1 (stereo unspecified) , thanks.
-15.8

====

Item-by-item account of Percent Effect
Molecular target: Tyrosyl-tRNA synthetase, putative (Trypanosoma cruzi (strain CL Brener))
Sequence (whole entry): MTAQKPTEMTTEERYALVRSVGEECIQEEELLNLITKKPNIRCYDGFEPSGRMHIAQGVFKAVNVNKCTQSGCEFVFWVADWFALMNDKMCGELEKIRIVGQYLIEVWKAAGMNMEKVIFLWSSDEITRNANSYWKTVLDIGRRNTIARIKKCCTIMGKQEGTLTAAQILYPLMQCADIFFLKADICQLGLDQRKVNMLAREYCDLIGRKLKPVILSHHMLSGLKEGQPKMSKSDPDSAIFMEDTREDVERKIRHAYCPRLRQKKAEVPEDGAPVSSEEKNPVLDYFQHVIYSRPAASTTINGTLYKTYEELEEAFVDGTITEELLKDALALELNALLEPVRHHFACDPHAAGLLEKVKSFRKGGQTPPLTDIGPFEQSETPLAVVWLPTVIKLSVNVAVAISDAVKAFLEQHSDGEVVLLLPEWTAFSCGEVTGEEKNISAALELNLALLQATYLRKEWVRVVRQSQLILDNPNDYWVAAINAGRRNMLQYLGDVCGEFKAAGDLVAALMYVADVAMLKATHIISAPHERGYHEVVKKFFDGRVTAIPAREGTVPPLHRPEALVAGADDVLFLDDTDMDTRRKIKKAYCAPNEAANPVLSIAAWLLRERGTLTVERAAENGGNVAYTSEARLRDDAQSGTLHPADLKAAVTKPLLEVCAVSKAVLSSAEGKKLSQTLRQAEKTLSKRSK
Assay: Trypanosoma cruzi tyrosyl tRNA synthetase (TcYRS) _High Tyrosine SOP; also: in the data most compounds retested in dose-response had high values
Assay type: functional
Design: scale not given: direction of the effect not stated beside the values
Details: 30 µM
Report the value in % with no unit label.

As a guide, the following entries are already answered.
compound=CCN(Cc1cccc(Cl)c1)Cc1nc2c(cnn2C)c(=O)[nH]1 unit_text=% reported_value=3.81
compound=CN(Cc1cnn(C)c1)C(=O)c1ccc(=O)n(C)n1 unit_text=% reported_value=6.38
compound=Nc1cc2c(nn1)CCN(C(=O)CC1CCCC1)C2 unit_text=% reported_value=7.39
compound="c1cnnc(N2CCCC2CNCc2cnc(N3CCCC3)nc2)c1 (stereo not drawn)" unit_text=% reported_value=5.21
compound=Cc1nnc(N2CCC(CN(C)C(C)C)CC2)c(C#N)c1C unit_text=% reported_value=3.81

I would be grateful if you could share the reported Percent Effect for OC(CN1CCN(c2ncccn2)CC1)c1cccc(F)c1 (stereo not drawn) .
6.45

Try this compound too: CC(C)COCC(NC(=O)c1cc[nH]n1)c1ccco1 (stereo not drawn)
4.43

Note, next up: COc1ccc(-c2noc(C(=O)NCCN3CCCCC3)n2)cc1OC
3.17

How about this compound: Cc1noc(C)c1CCC(=O)N1CCN(CCn2cccn2)CC1
3.23

Now try Cc1cnn(CC(C)NCc2csc(-c3ccco3)n2)c1 (stereo not drawn) .
11.5
